Recorded values, source ChEMBL document CHEMBL1759983.

- assay_name: Aqueous solubility of the compound
- Format: physicochemical
Kindly return condition met if reported solubility is no lower than 50 µg/mL; return condition not met if it is lower.

Worked examples follow.
compound	classification
Cc1c2c(n3c1CCNCC[C@H](C)Nc1cc-3ccc1C(N)=O)CC(C)(C)CC2=O	condition met
Cc1c2c(n3c1CCCNCC(C)(C)Nc1cc-3ccc1C(N)=O)CC(C)(C)CC2=O	condition not met
Cc1c2c(n3c1CCCNCCNc1cc-3ccc1C(N)=O)CC(C)(C)CC2=O	condition not met
Cc1c2c(n3c1CCCN(C)C[C@H](C)Nc1cc-3ccc1C(N)=O)CC(C)(C)CC2=O	condition not met
Cc1c2c(n3c1CC[C@H](C)N[C@H](C)CNc1cc-3ccc1C(N)=O)CC(C)(C)CC2=O	condition met
Cc1c2c(n3c1CCC(C)NCCNc1cc-3ccc1C(N)=O)CC(C)(C)CC2=O (configuration not stated)	condition met

# input Is reported solubility greater than or equal to 50 µg/mL here: `Cc1c2c(n3c1CNCCCCNc1cc-3ccc1C(N)=O)CC(C)(C)CC2=O`
# output condition not met

# input Does the reported solubility for `Cc1c2c(n3c1CC[C@@H](C)N[C@H](C)CNc1cc-3ccc1C(N)=O)CC(C)(C)CC2=O` fall at or above the 50 µg/mL mark?
# output condition met

# input Say whether `Cc1c2c(n3c1CCCNC(C)(C)CNc1cc-3ccc1C(N)=O)CC(C)(C)CC2=O` shows solubility of 50 µg/mL or more.
# output condition met

# input Dear colleague, could you confirm whether `Cc1c2c(n3c1CCNCCNc1cc-3ccc1C(N)=O)CC(C)(C)CC2=O` has solubility at or above 50 µg/mL?
# output condition met

# input Say whether Cc1c2c(n3c1CCNCC(C)CNc1cc-3ccc1C(N)=O)CC(C)(C)CC2=O (configuration not stated) shows solubility of 50 µg/mL or more.
# output condition not met

# input For this compound, is measured solubility 50 µg/mL or higher? `CC(=O)N1CCc2c(C)c3c(n2-c2ccc(C(N)=O)c(c2)N[C@@H](C)CC1)CC(C)(C)CC3=O`
# output condition not met

# input Has `Cc1c2c(n3c1CCCNC[C@H](C)Nc1cc-3ccc1C(N)=O)CC(C)(C)CC2=O` a recorded solubility greater than or equal to 50 µg/mL?
# output condition met

# input In plain terms: is recorded solubility at least 50 µg/mL for `Cc1c2c(n3c1CNCCC[C@H](C)Nc1cc-3ccc1C(N)=O)CC(C)(C)CC2=O` ?
# output condition not met

# input Could you please find out whether `Cc1c2c(n3c1CCNCCOCCNc1cc-3ccc1C(N)=O)CC(C)(C)CC2=O` has solubility that meets 50 µg/mL or exceeds it?
# output condition met

# input Given Cc1c2c(n3c1CCNCC(O)CNc1cc-3ccc1C(N)=O)CC(C)(C)CC2=O (configuration not stated) , state whether its solubility is at least 50 µg/mL.
# output condition met

# input Could you verify whether the entry `Cc1c2c(n3c1CCCNCC(C)(C)CNc1cc-3ccc1C(N)=O)CC(C)(C)CC2=O` shows solubility of no less than 50 µg/mL?
# output condition not met
